Field: Minimal inhibitory concentration (MIC). Provide a value for each of the molecules that follow.
- Test system: Candida albicans A. 10231
- protocol-notes: In vitro antifungal activity, microbroth dilution MIC
- Format: cell-based
- experimental-parameters: C. albicans A. 10231, RPMI-1640, 35° C., 4 to 48 hours
Numbers only, in µg/mL.

Previously resolved entries follow.
[[record]]
molecule = "Cc1ccc(C=C(F)OCC2COC(Cn3ccnc3)(c3ccc(Cl)cc3Cl)O2)cc1C (stereo not shown)"
unit_descriptor = "µg/mL"
quantitative_readout = 12.5

[[record]]
molecule = "CCc1ccc(C(=C(F)OCC2COC(Cn3ccnc3)(c3ccc(Cl)cc3Cl)O2)C(F)(F)F)cc1 (stereo not shown)"
unit_descriptor = "µg/mL"
quantitative_readout = 6.25

[[record]]
molecule = "FC(=Cc1ccccc1)OCC1COC(Cn2cncn2)(c2ccc(Cl)cc2Cl)O1 (mixture of isomers)"
unit_descriptor = "µg/mL"
quantitative_readout = 25.0


I'm hoping you can list Minimal inhibitory concentration (MIC) for every molecule here, please.
1. COc1cccc(C(=C(F)OCC2COC(Cn3ccnc3)(c3ccc(Cl)cc3Cl)O2)C(F)(F)F)c1 (stereo not shown)
2. FC(OCC1COC(Cn2ccnc2)(c2ccc(F)cc2F)O1)=C(c1ccc(Oc2ccccc2)cc1)C(F)(F)F (mixture of isomers)
3. Cc1cc(C=C(F)OCC2COC(Cn3ccnc3)(c3ccc(Cl)cc3Cl)O2)ccc1Cl (stereo not shown)
4. COc1ccc(C(=C(F)OCC2COC(Cn3ccnc3)(c3ccc(F)cc3F)O2)C(F)(F)F)cc1 (mixture of isomers)

6.25
25.0
12.5
12.5

###

- System: Candida krusei K. 11655
- protocol-notes: In vitro antifungal activity, microbroth dilution MIC
- Assay type: cell-based
- experimental-parameters: C. krusei K. 11655, RPMI-1640, 35° C., 4 to 48 hours
Assignment: determine reported Minimal inhibitory concentration (MIC) for the given compounds.

[[record]]
compound = "FC(OCC1COC(Cn2ccnc2)(c2ccc(F)cc2F)O1)=C(c1ccc(C(F)(F)F)cc1)C(F)(F)F (mixture of isomers)"
result = "50.0 µg/mL"

[[record]]
compound = "FC(OCC1COC(Cn2ccnc2)(c2ccc(Cl)cc2Cl)O1)=C(c1cccc(F)c1)C(F)(F)F (mixture of isomers)"
result = ">100 µg/mL"


State the recorded Minimal inhibitory concentration (MIC) for every item in the following list.
1. FC(=Cc1cccc(Cl)c1)OCC1COC(Cn2ccnc2)(c2ccc(Cl)cc2Cl)O1 (stereo not shown)
2. Cc1ccc(C(=C(F)OCC2COC(Cn3ccnc3)(c3ccc(Cl)cc3Cl)O2)C(F)(F)F)cc1 (stereo not shown)

["25.0 µg/mL", ">100 µg/mL"]

###

- System: Candida krusei K. 11655
- protocol-notes: In vitro antifungal activity, microbroth dilution MIC
- Format: cell-based
- experimental-parameters: C. krusei K. 11655, RPMI-1640, 35° C., 4 to 48 hours
I'd appreciate it if you could supply Minimal inhibitory concentration (MIC) values for the items below.
Answers are plain numbers, in µg/mL.

The following compounds have reported results that may help.
[[record]]
compound = "Cc1cc(C)c(C=C(F)OCC2COC(Cn3ccnc3)(c3ccc(F)cc3F)O2)cc1C (mixture of isomers)"
measured_target = "Candida krusei K. 11655"
unit_descriptor = "µg/mL"
quantitative_readout = 25.0

[[record]]
compound = "FC(OCC1COC(Cn2ccnc2)(c2ccc(F)cc2F)O1)=C(c1cccc(F)c1)C(F)(F)F (mixture of isomers)"
measured_target = "Candida krusei K. 11655"
unit_descriptor = "µg/mL"
quantitative_readout = 100

[[record]]
compound = "FC(=Cc1ccccc1)OCC1COC(Cn2ccnc2)(c2ccc(F)cc2F)O1 (mixture of isomers)"
measured_target = "Candida krusei K. 11655"
unit_descriptor = "µg/mL"
quantitative_readout = 50.0

[[record]]
compound = "COc1cccc(C(=C(F)OCC2COC(Cn3ccnc3)(c3ccc(Cl)cc3Cl)O2)C(F)(F)F)c1 (stereo not drawn)"
measured_target = "Candida krusei K. 11655"
unit_descriptor = "µg/mL"
quantitative_readout = 25.0

[[record]]
compound = "Cc1ccc(C=C(F)OCC2COC(Cn3ccnc3)(c3ccc(F)cc3F)O2)cc1 (mixture of isomers)"
measured_target = "Candida krusei K. 11655"
unit_descriptor = "µg/mL"
quantitative_readout = 25.0


I have 5 compounds here; please give me Minimal inhibitory concentration (MIC) for each one.
1. COc1cccc(C=C(F)OCC2COC(Cn3ccnc3)(c3ccc(F)cc3F)O2)c1 (mixture of isomers)
2. CCc1ccc(C=C(F)OCC2COC(Cn3ccnc3)(c3ccc(F)cc3F)O2)cc1 (mixture of isomers)
3. Cc1ccc(C=C(F)OCC2COC(Cn3ccnc3)(c3ccc(Cl)cc3Cl)O2)cc1C (stereo not drawn)
4. FC(=Cc1ccc(Cl)cc1)OCC1COC(Cn2ccnc2)(c2ccc(Cl)cc2Cl)O1 (stereo not drawn)
5. FC(OCC1COC(Cn2ccnc2)(c2ccc(F)cc2F)O1)=C(c1cccc(Cl)c1)C(F)(F)F (mixture of isomers)

1. 12.5
2. 25.0
3. 12.5
4. 6.25
5. 50.0

Required: Minimal inhibitory concentration (MIC), one value per compound below.
1. Cc1ccc(C(=C(F)OCC2COC(Cn3ccnc3)(c3ccc(Cl)cc3Cl)O2)C(F)(F)F)cc1C (stereo not drawn)
2. FC(=Cc1cccc2ccccc12)OCC1COC(Cn2ccnc2)(c2ccc(F)cc2F)O1 (mixture of isomers)

1. 100
2. 50.0

For each listed entry, give its Minimal inhibitory concentration (MIC).
1. Cc1ccc(C=C(F)OCC2COC(Cn3ccnc3)(c3ccc(Cl)cc3Cl)O2)cc1 (stereo not drawn)
2. FC(OCC1COC(Cn2ccnc2)(c2ccc(F)cc2F)O1)=C(c1cc(Cl)cc(Cl)c1)C(F)(F)F (mixture of isomers)
3. FC(=Cc1ccccc1)OCC1COC(Cn2cncn2)(c2ccc(Cl)cc2Cl)O1 (mixture of isomers)
4. Cc1cc(C)cc(C=C(F)OCC2COC(Cn3ccnc3)(c3ccc(F)cc3F)O2)c1 (mixture of isomers)
5. FC(OCC1COC(Cn2ccnc2)(c2ccc(Cl)cc2Cl)O1)=C(c1cc(Cl)cc(Cl)c1)C(F)(F)F (mixture of isomers)
6. Cc1cc(C=C(F)OCC2COC(Cn3ccnc3)(c3ccc(Cl)cc3Cl)O2)ccc1Cl (stereo not drawn)
7. CC(C)Oc1cccc(C=C(F)OCC2COC(Cn3ccnc3)(c3ccc(F)cc3F)O2)c1 (mixture of isomers)
8. Cc1cc(C)cc(C=C(F)OCC2COC(Cn3ccnc3)(c3ccc(Cl)cc3Cl)O2)c1 (stereo not drawn)

6.25
50.0
12.5
50.0
25.0
12.5
12.5
12.5

Please go through the list and note Minimal inhibitory concentration (MIC) for each compound.
1. CCc1ccc(C(=C(F)OCC2COC(Cn3ccnc3)(c3ccc(Cl)cc3Cl)O2)C(F)(F)F)cc1 (stereo not drawn)
2. Cc1cc(C=C(F)OCC2COC(Cn3ccnc3)(c3ccc(F)cc3F)O2)ccc1Cl (mixture of isomers)
3. FC(OCC1COC(Cn2ccnc2)(c2ccc(F)cc2F)O1)=C(c1ccc(F)cc1)C(F)(F)F (mixture of isomers)
4. FC(=Cc1cccc(F)c1)OCC1COC(Cn2ccnc2)(c2ccc(Cl)cc2Cl)O1 (stereo not drawn)

[100, 25.0, 100, 6.25]

The values you see were collected from patent US6376497B1.
